assay: Inhibition of tubulin in Acanthamoeba polyphaga by alamar blue assay
Quick list: IC50 per entry.
Response body: numeric value in µM, unit text excluded.

smiles.repr | property.measured | observed.result
COc1cc2c(c(OC)c1OC)-c1ccc(OC)c(=O)cc1[C@@H](NC(C)=O)CC2 | IC50 | 2500

Next item in the queue.
// sample CC[C@]1(O)C[C@@H]2CN(CCc3c([nH]c4ccccc34)[C@@](C(=O)OC)(c3cc4c(cc3OC)N(C)[C@H]3[C@@](O)(C(=O)OC)[C@H](OC(C)=O)[C@]5(CC)C=CCN6CC[C@]43[C@@H]65)C2)C1 , its IC50 was 0.68

###

# pIC50 per record follows
assay: Inhibition of tubulin in rabbit corneal cells by alamar blue assay; type: cell-based; settings: Oryctolagus cuniculus, Cornea
Recall that pIC50 is obtained by taking minus log10 of the concentration measured in molar.

smiles.repr | pIC50
COc1cc2c(c(OC)c1OC)-c1ccc(OC)c(=O)cc1[C@@H](NC(C)=O)CC2 | 5.62
CC(=O)O[C@H]1C(=O)[C@@]2(C)[C@H]([C@H](OC(=O)c3ccccc3)[C@]3(O)C[C@H](OC(=O)[C@H](O)[C@@H](NC(=O)c4ccccc4)c4ccccc4)C(C)=C1C3(C)C)[C@]1(OC(C)=O)CO[C@@H]1C[C@@H]2O | 7.40

// sample CC[C@]1(O)C[C@@H]2CN(CCc3c([nH]c4ccccc34)[C@@](C(=O)OC)(c3cc4c(cc3OC)N(C)[C@H]3[C@@](O)(C(=O)OC)[C@H](OC(C)=O)[C@]5(CC)C=CCN6CC[C@]43[C@@H]65)C2)C1 , its pIC50 was 7.77

// field: pIC50; key: CCCSc1ccc2[nH]c(NC(=O)OC)nc2c1 ; value = 6.15

###

test system: Acanthamoeba castellanii; assay: Antimicrobial activity against Acanthamoeba castellanii; type: functional, organism-based
property.measured: pIC50
Scale explanation: pIC50 corresponds to minus log10 of a concentration expressed in moles per litre.

Entry N=C(NCCCCCCNC(=N)NC(=N)Nc1ccc(Cl)cc1)NC(=N)Nc1ccc(Cl)cc1 [CHLORHEXIDINE] , pIC50 reported as 5.81

###

assay: Inhibition of tubulin in Acanthamoeba polyphaga by alamar blue assay
property.measured: IC50

Solved entries (count: 2):
smiles.repr | IC50
CCCSc1ccc2[nH]c(NC(=O)OC)nc2c1 | > 47 µM
CC(=O)O[C@H]1C(=O)[C@@]2(C)[C@H]([C@H](OC(=O)c3ccccc3)[C@]3(O)C[C@H](OC(=O)[C@H](O)[C@@H](NC(=O)c4ccccc4)c4ccccc4)C(C)=C1C3(C)C)[C@]1(OC(C)=O)CO[C@@H]1C[C@@H]2O | > 10 µM

As a next step, examine the molecule that follows.
Kindly note the recorded IC50 for CCCN(CCC)c1c([N+](=O)[O-])cc(S(N)(=O)=O)cc1[N+](=O)[O-] , which is > 100 µM

Values from ChEMBL document CHEMBL1255235
